// data source = patent US9212165B2

- testedOn: mGluR5 (MPEP binding site) (Homo sapiens (Human), UniProt P41594)
- Sequence (P41594 21-1212): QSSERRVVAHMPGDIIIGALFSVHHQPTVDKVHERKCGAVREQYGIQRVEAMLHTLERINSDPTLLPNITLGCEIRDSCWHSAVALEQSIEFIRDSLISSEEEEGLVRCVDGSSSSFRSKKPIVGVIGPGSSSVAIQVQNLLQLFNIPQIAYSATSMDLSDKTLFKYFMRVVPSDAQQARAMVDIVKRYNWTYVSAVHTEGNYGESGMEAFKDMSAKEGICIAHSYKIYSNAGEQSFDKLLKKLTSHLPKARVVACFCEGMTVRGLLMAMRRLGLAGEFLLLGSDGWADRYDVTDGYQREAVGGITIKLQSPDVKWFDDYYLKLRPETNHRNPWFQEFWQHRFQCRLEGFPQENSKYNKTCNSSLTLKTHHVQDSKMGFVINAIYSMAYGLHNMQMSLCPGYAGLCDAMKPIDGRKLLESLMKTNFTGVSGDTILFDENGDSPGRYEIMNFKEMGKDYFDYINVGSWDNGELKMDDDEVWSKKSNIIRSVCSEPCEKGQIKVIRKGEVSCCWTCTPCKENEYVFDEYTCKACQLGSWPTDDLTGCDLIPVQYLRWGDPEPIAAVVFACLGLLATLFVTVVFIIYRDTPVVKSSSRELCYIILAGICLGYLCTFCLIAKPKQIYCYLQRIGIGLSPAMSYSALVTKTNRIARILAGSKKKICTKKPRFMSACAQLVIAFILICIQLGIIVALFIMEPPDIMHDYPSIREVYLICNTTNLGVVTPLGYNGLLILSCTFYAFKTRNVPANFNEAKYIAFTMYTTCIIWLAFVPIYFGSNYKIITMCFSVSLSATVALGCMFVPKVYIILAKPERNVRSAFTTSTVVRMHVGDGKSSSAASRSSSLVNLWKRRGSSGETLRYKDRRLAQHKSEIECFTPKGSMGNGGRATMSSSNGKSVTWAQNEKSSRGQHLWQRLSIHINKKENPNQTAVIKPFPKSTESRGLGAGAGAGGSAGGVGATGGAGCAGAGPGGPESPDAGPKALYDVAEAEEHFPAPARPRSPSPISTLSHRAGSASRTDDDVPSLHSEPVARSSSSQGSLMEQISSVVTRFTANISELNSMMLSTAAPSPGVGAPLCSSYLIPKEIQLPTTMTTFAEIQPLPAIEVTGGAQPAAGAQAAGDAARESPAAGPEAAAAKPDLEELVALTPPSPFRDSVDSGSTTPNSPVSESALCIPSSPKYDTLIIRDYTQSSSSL
- testMethodNotes: Radioligand binding assay (MPEP site radioligand, membrane filtration)
- details: 5 nM radioligand binding to MPEP site; Cheng-Prusoff
pKi: −log10 of the molar value.
measuredProperty: pKi

Examples from the recorded data:
>>> df
                                   compound  measvalue
0  O=C(NC12CCCC(C#Cc3cnccn3)(CC1)C2)c1cccc(Cl)c1 (stereo not shown)       7.04
1  Cn1ccc(C(=O)N[C@]23CCC[C@](C#Cc4cnccn4)(CC2)C3)n1       7.47
2  Cn1ccc(C(=O)N[C@@]23CCC[C@@](C#Cc4cnccn4)(CC2)C3)n1       6.23
3  O=C(N[C@@]12CCC[C@@](C#Cc3ccccn3)(CC1)C2)c1ccc(F)cn1       7.46

1. Cc1csc(C(=O)N[C@@]23CCC[C@@](C#Cc4cnccn4)(CC2)C3)n1
2. Cc1csc(C(=O)N[C@]23CCC[C@](C#Cc4cnccn4)(CC2)C3)n1
Request: // compare measured pKi between 1 and 2 ; output the lower one Return value: the label identifying the chosen record.
Response: 1
(1: 7.42, 2: 8.21)

---

- testedOn: mGluR5 (MPEP binding site) (Homo sapiens (Human), UniProt P41594)
- testMethodNotes: Radioligand binding assay (MPEP site radioligand, membrane filtration)
- details: 5 nM radioligand binding to MPEP site; Cheng-Prusoff
measuredProperty: Ki (nM)

>>> print(df.to_string())
                                   compound  measvalue
0  O=C(NC12CC3CC(CC(C#Cc4ccccn4)(C3)C1)C2)c1cnccn1        4.7
1  Cc1cncc(C#CC23CC4CC(C2)CC(NC(=O)c2cccc(F)c2)(C4)C3)n1       1300
2  Cc1csc(C#CC23CC4CC(C2)CC(NC(=O)c2ccn(C)n2)(C4)C3)n1        120
3  O=C(N[C@]12CCC[C@](C#Cc3ccccn3)(CC1)C2)c1ccc(F)cn1         11

A. Cc1nccc(C(=O)N[C@@]23CCC[C@@](C#Cc4ccccn4)(CC2)C3)n1
B. O=C(NC12CCCC(C#Cc3cccc(F)c3)(CC1)C2)c1cnccn1 (stereo not shown)
C. Cc1nccc(C(=O)N[C@]23CCC[C@](C#Cc4ccccn4)(CC2)C3)n1
Request: Please order the records by their reported Ki, lowest number first. To answer, write out the labels according to the requested order.
Response: B, C, A
(B: 3 nM, C: 10 nM, A: 17 nM)
